- Target or test system: Rabbit muscle actin (monomeric) (rabbit, UniProt P68135 1-377)
- Protocol summary: fluorescence polarisation; fluorescence anisotropy competition: 20 nM VCA-AF488 with rabbit muscle actin (150 nM in the legend, 200 nM in the methods) and increasing Cy3-diVCA construct; fit to a competition binding isotherm; 10 mM imidazole pH 7.0, 50 mM KCl, 1 mM EGTA, 1 mM MgCl2, 0.5 mM DTT, 0.1 mM ATP; room temperature
- Test conditions: both partners purified
Assay readout: pKd
Please report pKd as the negative decimal logarithm of the molar concentration, giving only the number.

Examples with their reported pKd follow.
Cy3-diVCA wild-type (N-WASP VCA covalently dimerized with a Cy3 bis-maleimide) (domain or fragment, Cy3 bis-maleimide (BMCy3) crosslinks the single Cys of the N-terminal extension of the two chains, extension appended at the N-terminus; its Cys reacts with the Cy3 bis-maleimide; human N-WASP VCA, residues 432-505 (second WH2 motif (V) through the C-terminus); Covalent dimer; also called diVCA w.t; wild-type diVCA; source: E. coli BL21(DE3) T1R, purified (DEAE, Glutathione Sepharose, TEV cleavage, SOURCE 15Q, Superdex 200); not shown: GST, N-terminal, cleaved) CGGSGGSGGSGGSSGRDALLDQIRQGIQLKSVADGQESTPPTPAPTSGIVGALMEVMQKRSKAIHSSDEDEDEDDEEDFEDDDEWED = 6.47
Cy3-diVCA-C* (I467A) (domain or fragment, Cy3 bis-maleimide (BMCy3) crosslinks the single Cys of the N-terminal extension of the two chains, extension appended at the N-terminus; its Cys reacts with the Cy3 bis-maleimide; human N-WASP VCA, residues 432-505, mutated in the C-region; Covalent dimer; same design as m1; also called C* mutant; source: E. coli BL21(DE3) T1R, purified (DEAE, Glutathione Sepharose, TEV cleavage, SOURCE 15Q, Superdex 200); not shown: GST, N-terminal, cleaved) CGGSGGSGGSGGSSGRDALLDQIRQGIQLKSVADGQESTPPTPAPTSGAVGALMEVMQKRSKAIHSSDEDEDEDDEEDFEDDDEWED = 6.59
Cy3-diVCA-V* (D435S/A436D) (domain or fragment, Cy3 bis-maleimide (BMCy3) crosslinks the single Cys of the N-terminal extension of the two chains, extension appended at the N-terminus; its Cys reacts with the Cy3 bis-maleimide; human N-WASP VCA, residues 432-505, mutated in the V-region; Covalent dimer; same design as m1; also called V* mutant; source: E. coli BL21(DE3) T1R, purified (DEAE, Glutathione Sepharose, TEV cleavage, SOURCE 15Q, Superdex 200); not shown: GST, N-terminal, cleaved) CGGSGGSGGSGGSSGRSDLLDQIRQGIQLKSVADGQESTPPTPAPTSGIVGALMEVMQKRSKAIHSSDEDEDEDDEEDFEDDDEWED = 6.18

Next:
Quick one: pKd of Cy3-diVCA-A* (Δ486–488) (domain or fragment, Cy3 bis-maleimide (BMCy3) crosslinks the single Cys of the N-terminal extension of the two chains, extension appended at the N-terminus; its Cys reacts with the Cy3 bis-maleimide; human N-WASP VCA, residues 432-505, three-residue deletion in the A-region; Covalent dimer; same design as m1; also called A* mutant; source: E. coli BL21(DE3) T1R, purified (DEAE, Glutathione Sepharose, TEV cleavage, SOURCE 15Q, Superdex 200); not shown: GST, N-terminal, cleaved) CGGSGGSGGSGGSSGRDALLDQIRQGIQLKSVADGQESTPPTPAPTSGIVGALMEVMQKRSKAIHSSEDEDDEEDFEDDDEWED ?
6.60
